- tgt: UniProt Q96NX5
- Sequence (Q96NX5 whole entry, looked up): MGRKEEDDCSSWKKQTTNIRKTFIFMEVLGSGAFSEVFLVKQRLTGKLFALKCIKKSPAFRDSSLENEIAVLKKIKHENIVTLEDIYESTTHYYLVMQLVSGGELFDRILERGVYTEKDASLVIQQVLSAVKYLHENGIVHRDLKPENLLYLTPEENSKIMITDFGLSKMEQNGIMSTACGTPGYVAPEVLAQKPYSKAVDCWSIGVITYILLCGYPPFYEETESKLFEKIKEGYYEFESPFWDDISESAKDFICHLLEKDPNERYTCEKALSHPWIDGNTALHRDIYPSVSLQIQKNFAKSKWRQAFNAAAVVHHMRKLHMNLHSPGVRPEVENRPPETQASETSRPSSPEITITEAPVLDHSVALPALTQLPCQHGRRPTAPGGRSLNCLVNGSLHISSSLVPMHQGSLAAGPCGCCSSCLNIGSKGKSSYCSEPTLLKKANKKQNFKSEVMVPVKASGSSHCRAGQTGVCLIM
- procedure_text: radiometric filter-binding kinase assay, Kinase HotSpot
- assay_conditions: compound 0.5 µM; ATP 10 µM
value_type: residual activity (%)
Give bare numbers, in %.

• CCN1/C(=C/C(C)=O)Sc2ccc(OC)cc21 = 101
• Clc1ccc(Nc2nnc(Cc3ccncc3)c3ccccc23)cc1 = 107

residual activity of `O=C(Nc1ccc(Cl)cc1)c1ccccc1NCc1ccncc1` on UniProt Q96NX5?
101

* * *

So I've got a bunch of compounds here, and I need their residual activity values.
- tgt: UniProt Q92630
- Sequence (Q92630 whole entry, looked up): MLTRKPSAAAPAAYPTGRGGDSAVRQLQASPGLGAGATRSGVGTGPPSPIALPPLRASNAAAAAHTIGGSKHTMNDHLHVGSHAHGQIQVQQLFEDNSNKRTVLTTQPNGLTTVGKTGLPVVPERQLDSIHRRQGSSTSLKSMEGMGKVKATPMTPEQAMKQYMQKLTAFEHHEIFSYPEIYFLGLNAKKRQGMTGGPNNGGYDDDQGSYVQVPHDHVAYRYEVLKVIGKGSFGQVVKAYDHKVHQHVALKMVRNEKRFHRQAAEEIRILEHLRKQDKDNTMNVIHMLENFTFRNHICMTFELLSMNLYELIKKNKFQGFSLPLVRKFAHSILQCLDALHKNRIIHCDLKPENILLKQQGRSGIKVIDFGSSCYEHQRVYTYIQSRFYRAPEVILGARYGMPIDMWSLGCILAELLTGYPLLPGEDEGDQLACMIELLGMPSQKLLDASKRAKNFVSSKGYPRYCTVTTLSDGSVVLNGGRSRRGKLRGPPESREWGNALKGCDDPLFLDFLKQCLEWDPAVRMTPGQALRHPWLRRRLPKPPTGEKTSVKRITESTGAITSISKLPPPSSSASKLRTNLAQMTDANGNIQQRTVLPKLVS
- procedure_text: radiometric filter-binding kinase assay, Kinase HotSpot
- assay_conditions: compound 0.5 µM; ATP 10 µM

Give one value of residual activity per listed compound.
1. O=c1cc(N2CCNCC2)oc2c(-c3ccccc3)cccc12
2. Cc1ccc(NC(=O)c2ccc(CN3CCN(C)CC3)cc2)cc1Nc1nc(-c2cccnc2)cs1
3. Nc1nc(Nc2ccc(S(N)(=O)=O)cc2)nn1C(=O)c1c(F)cccc1F
4. COc1cc2nccc(Oc3ccc(NC(=S)NC(=O)c4ccccc4C)cc3)c2cc1OC
5. Cc1cc2ncc(-c3ccccc3)nc2cc1C
6. CC(C)(C)c1nc2c3ccc(F)cc3c3c(=O)[nH]ccc3c2[nH]1

1. 96.8%
2. 109%
3. 112%
4. 87.5%
5. 95.9%
6. 62.5%

* * *

Exercise: state measured residual activity for each of the molecules provided.
- tgt: EGFR (human) (UniProt P00533)
- Sequence (P00533 whole entry, looked up): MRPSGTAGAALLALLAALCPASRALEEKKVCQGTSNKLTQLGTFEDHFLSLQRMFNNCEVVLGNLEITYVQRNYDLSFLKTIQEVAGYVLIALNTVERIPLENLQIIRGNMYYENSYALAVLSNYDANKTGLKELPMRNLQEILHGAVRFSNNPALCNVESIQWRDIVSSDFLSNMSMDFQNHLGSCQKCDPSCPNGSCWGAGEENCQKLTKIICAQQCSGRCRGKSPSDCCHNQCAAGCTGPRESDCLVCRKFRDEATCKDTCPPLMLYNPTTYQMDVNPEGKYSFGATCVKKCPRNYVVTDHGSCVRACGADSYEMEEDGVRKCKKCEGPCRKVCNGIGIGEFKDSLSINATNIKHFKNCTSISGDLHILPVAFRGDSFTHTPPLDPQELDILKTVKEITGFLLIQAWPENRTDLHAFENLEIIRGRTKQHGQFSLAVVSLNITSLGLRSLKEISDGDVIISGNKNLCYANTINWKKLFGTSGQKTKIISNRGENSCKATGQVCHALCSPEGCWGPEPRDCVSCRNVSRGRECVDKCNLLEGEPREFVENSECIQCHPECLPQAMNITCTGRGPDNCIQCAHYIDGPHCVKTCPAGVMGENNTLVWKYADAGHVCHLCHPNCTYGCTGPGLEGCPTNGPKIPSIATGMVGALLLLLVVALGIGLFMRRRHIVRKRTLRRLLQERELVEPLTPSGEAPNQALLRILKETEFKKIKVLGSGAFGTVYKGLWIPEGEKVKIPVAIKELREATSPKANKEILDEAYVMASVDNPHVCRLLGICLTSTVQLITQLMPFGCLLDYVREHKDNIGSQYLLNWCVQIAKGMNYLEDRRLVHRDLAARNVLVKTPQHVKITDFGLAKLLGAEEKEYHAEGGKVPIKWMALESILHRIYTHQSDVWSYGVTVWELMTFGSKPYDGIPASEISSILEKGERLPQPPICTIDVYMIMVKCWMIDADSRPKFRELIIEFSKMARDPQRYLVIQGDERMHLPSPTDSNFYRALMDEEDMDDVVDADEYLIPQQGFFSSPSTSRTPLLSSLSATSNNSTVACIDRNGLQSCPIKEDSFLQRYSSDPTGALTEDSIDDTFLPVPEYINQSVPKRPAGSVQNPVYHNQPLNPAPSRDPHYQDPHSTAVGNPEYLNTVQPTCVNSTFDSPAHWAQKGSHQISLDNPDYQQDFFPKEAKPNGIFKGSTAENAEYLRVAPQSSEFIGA
- procedure_text: radiometric filter-binding kinase assay, Kinase HotSpot
- assay_conditions: compound 0.5 µM; ATP 10 µM
Numbers only, in %.

Below are worked cases with known answers.
• CC(C)[C@H](CO)Nc1nc(Nc2cccc(Cl)c2)c2ncn(C(C)C)c2n1 = 94.2
• CC(C)(C)c1nc2c3ccc(F)cc3c3c(=O)[nH]ccc3c2[nH]1 = 94.8
• NC(=O)c1ccc(N(C(N)=O)c2c(F)cccc2F)nc1-c1ccc(F)cc1F = 92.7
• O=C1Nc2ccccc2/C1=C\c1c(Cl)[nH]c2ccccc12 = 97.5
• Nc1nc(Nc2ccc(S(N)(=O)=O)cc2)nn1C(=O)c1c(F)cccc1F = 97

I have 6 molecules here; please give me residual activity for each one.
1. O=c1cc(-c2cccc3c2Sc2ccccc2S3)oc(N2CCOCC2)c1
2. CCN1/C(=C/C(C)=O)Sc2ccc(OC)cc21
3. CSc1nc(-c2ccc(F)cc2)c(-c2ccnc(NC(C)c3ccccc3)c2)[nH]1 (stereo unspecified)
4. Cc1ccc(NC(=O)c2ccc(CN3CCN(C)CC3)cc2)cc1Nc1nc(-c2cccnc2)cs1
5. O=c1cc(N2CCNCC2)oc2c(-c3ccccc3)cccc12
6. COc1ccc(-c2cnc3c(-c4ccsc4)cnn3c2)cc1

1: 107; 2: 99.1; 3: 87.1; 4: 99.6; 5: 110; 6: 92.3

* * *

- tgt: CDK1 CCNB1 (human) (UniProt P06493+P14635)
- Sequence (P06493 whole entry, looked up): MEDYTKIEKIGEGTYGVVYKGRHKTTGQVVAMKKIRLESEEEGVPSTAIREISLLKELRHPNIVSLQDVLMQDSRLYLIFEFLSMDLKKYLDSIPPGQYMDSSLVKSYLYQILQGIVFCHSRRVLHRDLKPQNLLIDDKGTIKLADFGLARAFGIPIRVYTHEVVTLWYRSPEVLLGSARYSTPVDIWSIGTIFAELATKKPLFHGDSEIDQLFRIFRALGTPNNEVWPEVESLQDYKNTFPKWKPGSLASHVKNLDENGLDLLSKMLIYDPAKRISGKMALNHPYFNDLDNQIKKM
- Sequence (P14635 whole entry, looked up): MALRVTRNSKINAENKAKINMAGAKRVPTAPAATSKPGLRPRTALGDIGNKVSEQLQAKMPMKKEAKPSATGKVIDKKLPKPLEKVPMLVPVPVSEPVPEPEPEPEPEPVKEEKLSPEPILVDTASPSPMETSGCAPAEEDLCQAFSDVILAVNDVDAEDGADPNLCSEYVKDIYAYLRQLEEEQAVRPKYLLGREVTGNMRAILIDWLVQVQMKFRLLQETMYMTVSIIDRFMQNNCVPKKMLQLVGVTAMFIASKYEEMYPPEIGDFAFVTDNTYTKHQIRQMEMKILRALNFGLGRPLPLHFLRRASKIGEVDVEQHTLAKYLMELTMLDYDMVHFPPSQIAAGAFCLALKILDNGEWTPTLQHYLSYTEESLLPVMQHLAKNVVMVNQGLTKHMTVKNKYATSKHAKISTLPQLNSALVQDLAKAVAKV
- procedure_text: radiometric filter-binding kinase assay, Kinase HotSpot
- assay_conditions: compound 0.5 µM; ATP 10 µM
value_type: residual activity (%)
Give bare numbers, in %.

Illustrative cases are given below, each with its answer.
* C#Cc1cccc(Nc2ncnc3cc(OCCOC)c(OCCOC)cc23)c1 | 97.2
* O=C(Nc1ccc(Cl)cc1)c1ccccc1NCc1ccncc1 | 96.3
* CC(C)n1cnc2c(Nc3cccc(Cl)c3)nc(NCCO)nc21 | 46.6
* Oc1ccc(-c2nc(-c3ccc(F)cc3)c(-c3ccncc3)[nH]2)cc1 | 99
* NC(=O)c1ccc(N(C(N)=O)c2c(F)cccc2F)nc1-c1ccc(F)cc1F | 95.7

Give residual activity for each listed item.
1. Clc1ccc(Nc2nnc(Cc3ccncc3)c3ccccc23)cc1
2. COc1ccc(-c2cnc3c(-c4ccsc4)cnn3c2)cc1
3. Cc1ccc(NC(=O)c2ccc(CN3CCN(C)CC3)cc2)cc1Nc1nc(-c2cccnc2)cs1
4. Nc1nc(Nc2ccc(S(N)(=O)=O)cc2)nn1C(=O)c1c(F)cccc1F

1. 104
2. 87.2
3. 97.6
4. 5.65

Please state residual activity for every compound in the list that follows.
1. COc1cc2nccc(Oc3ccc(NC(=S)NC(=O)c4ccccc4C)cc3)c2cc1OC
2. O=C1Nc2ccccc2/C1=C\c1c(Cl)[nH]c2ccccc12
3. CS(=O)c1ccc(-c2nc(-c3ccc(F)cc3)c(-c3ccncc3)[nH]2)cc1 (centres undefined)
4. COc1cc2ncnc(Nc3ccc(F)c(Cl)c3)c2cc1OCCCN1CCOCC1
5. O=c1cc(N2CCNCC2)oc2c(-c3ccccc3)cccc12

1. 90.7
2. 94.3
3. 99.1
4. 99.1
5. 106
